- experiment: pKa by titration
- Format: physicochemical
- test-parameters: read-out: pKa
Where a name gives a salt, the structure may show the parent alone.

{"compound": "O=C1O[C@H]([C@@H](O)CO)C(OCc2cccc(Br)c2)=C1O [3-O-(3-bromobenzyl)-L-ascorbic acid]", "pKa": 10.5}
{"compound": "CCCCCCCCCCCCCCCCCCOC1=C(O)C(=O)O[C@@H]1[C@H](O)CO (relative stereo) [3-O-n-octadecyl isoascorbic acid]", "pKa": 11.6}
{"compound": "COc1ccc(OC)c(C(=O)COC2=C(O)C(=O)O[C@@H]2[C@@H]2COC(C)(C)O2)c1", "pKa": 10.6}
{"compound": "CC1(C)OC[C@@H]([C@H]2OC(=O)C(O)=C2OCc2ccc([N+](=O)[O-])cc2)O1", "pKa": 10.1}
{"compound": "CC1(C)OC[C@@H]([C@H]2OC(=O)C(O)=C2OCCCCC#N)O1", "pKa": 10.4}
{"compound": "CCCCCCCCCCCCCCCCCCOC1=C(O)C(=O)O[C@@H]1[C@@H]1COC(C)(C)O1", "pKa": 11.4}
{"compound": "CCCCCCCCCCCCCCCCCCOC1=C(OCCCN(C)C)C(=O)O[C@@H]1[C@@H](O)CO [hydrochloride]", "pKa": 8}
{"compound": "CCCCCCCCCCCCCCCOC1=C(O)C(=O)O[C@@H]1[C@@H]1COC(C)(C)O1", "pKa": 10.9}
{"compound": "Cc1ccccc1COC1=C(O)C(=O)O[C@@H]1[C@@H](O)CO [3-O-(2-methylbenzyl)-L-ascorbic acid]", "pKa": 10.8}
{"compound": "CC1(C)OC[C@@H]([C@H]2OC(=O)C(O)=C2OCCCCCCCCCCCO)O1", "pKa": 10.8}
{"compound": "CC1(C)OC[C@@H]([C@H]2OC(=O)C(O)=C2OCCOCCBr)O1", "pKa": 10.4}
